# TARGET UNDER TEST: 18 Env antigens
# EXPERIMENTAL DETAILS: ELISA
VALUE TYPE: mean fold change in ELISA binding titer (OD450) versus parental 2411a (fold)
Return type: number; implicit unit fold.

BINDER: 2411a revertant of heavy chain N52K (CDR H2) (antibody, V domains shown) VH: QVQLVQSGAEMKKPGASVRVSCEASGYTFTDYVLHWMRQAPGQGIEWLGWINPRYGAVNYAHKFQGRVSMTRDTSIDTAYLELINLRSDDTAIYYCARSFDSDYEWWFTYWGQGTLVSVSA VL: EIVLTQSPGTLSLSPGERATLSCRASYFISRDYLAWYQQRPGQAPKLLIYGTTTRASGIPDRFSGSGSGTDFTLTISRLEPEDFAVYYCQQYEFFGLGTKVEIK
OBS VALUE: 5.4

Qu. State, in one line, measured mean fold change in ELISA binding titer (OD450) versus parental 2411a of 2411a revertant of heavy chain Q61H (CDR H2) (antibody, V domains shown) VH: QVQLVQSGAEMKKPGASVRVSCEASGYTFTDYVLHWMRQAPGQGIEWLGWIKPRYGAVNYAQKFQGRVSMTRDTSIDTAYLELINLRSDDTAIYYCARSFDSDYEWWFTYWGQGTLVSVSA VL: EIVLTQSPGTLSLSPGERATLSCRASYFISRDYLAWYQQRPGQAPKLLIYGTTTRASGIPDRFSGSGSGTDFTLTISRLEPEDFAVYYCQQYEFFGLGTKVEIK
Ans. 1.4

Qu. Note down mean fold change in ELISA binding titer (OD450) versus parental 2411a recorded for 2411a revertant of heavy chain N53R/S54Y (CDR H2) (antibody, V domains shown) VH: QVQLVQSGAEMKKPGASVRVSCEASGYTFTDYVLHWMRQAPGQGIEWLGWIKPNSGAVNYAHKFQGRVSMTRDTSIDTAYLELINLRSDDTAIYYCARSFDSDYEWWFTYWGQGTLVSVSA VL: EIVLTQSPGTLSLSPGERATLSCRASYFISRDYLAWYQQRPGQAPKLLIYGTTTRASGIPDRFSGSGSGTDFTLTISRLEPEDFAVYYCQQYEFFGLGTKVEIK
Ans. 6.5

// data source = paper PMC8020832
